B1: CPEB3 Ribozyme (parent)
chain: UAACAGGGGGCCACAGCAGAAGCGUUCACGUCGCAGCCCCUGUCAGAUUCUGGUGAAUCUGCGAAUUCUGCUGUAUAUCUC

- Variants of: B1
- Assay method text: self-cleavage, relative activity (ratio to wild type); higher = more cleavage; in vitro, sequencing
Listed here: items and their measured self-cleavage.
Measured quantity: self-cleavage

variant_id="C38U U78A" value_measured=1.17
variant_id="A28G C34G" value_measured=0.35
variant_id="U66C G70A" value_measured=0.35
variant_id="U49A A75G" value_measured=0.39
variant_id="U1A U49A" value_measured=0.58
variant_id="A57C U78C" value_measured=0.66
variant_id="U41G A47G" value_measured=0.37
variant_id="A45U G55U" value_measured=0.24
variant_id="A15U G63A" value_measured=0.67
variant_id="A20G G55U" value_measured=0.62
variant_id="U60A U69C" value_measured=0.34
variant_id="A2U U41A" value_measured=0.25
variant_id="U48C U78G" value_measured=0.94
variant_id="A15U A75U" value_measured=0.87
variant_id="U25G U43C" value_measured=0.34
variant_id="U41G A45U" value_measured=0.17
variant_id="G33A C40A" value_measured=0.19
variant_id="U51A A57G" value_measured=0.56
variant_id="U60A U80A" value_measured=0.59
variant_id="A5U U78C" value_measured=0.93
variant_id="A5U U66G" value_measured=0.93
variant_id="A5U A21U" value_measured=0.53
variant_id="A5G U26A" value_measured=0.56
variant_id="U1A U51C" value_measured=0.92
variant_id="U31A U51G" value_measured=0.33
variant_id="G33A A65G" value_measured=0.35
variant_id="A28U A35G" value_measured=1.22
variant_id="U54A A64U" value_measured=0.37
variant_id="C50A A57U" value_measured=0.22
variant_id="U31C G53A" value_measured=0.91
variant_id="G10C U51C" value_measured=0.22
variant_id="U51C U80G" value_measured=1.17
variant_id="A47G U51G" value_measured=0.79
variant_id="G24A U72A" value_measured=0.29
variant_id="U67A U80A" value_measured=0.58
variant_id="U80C C81A" value_measured=1.23
variant_id="C32U C79A" value_measured=0.22
variant_id="A65C U80C" value_measured=0.53
variant_id="A47U U80C" value_measured=0.66
variant_id="A2G U72G" value_measured=0.42
variant_id="G9A U66C" value_measured=0.24
variant_id="G70C C71U" value_measured=0.3
variant_id="U69C U78C" value_measured=0.69
variant_id="A5U G9U" value_measured=0.34
variant_id="C11A A18U" value_measured=0.43
variant_id="A2G G70A" value_measured=0.16
variant_id="C11A U51C" value_measured=0.38
variant_id="A15U C32U" value_measured=0.4
variant_id="G24A U54C" value_measured=0.27
variant_id="A45U U78C" value_measured=0.44
variant_id="A45C U80A" value_measured=0.48
variant_id="A13U G73U" value_measured=1.24
variant_id="A21U A28G" value_measured=0.22
variant_id="C12U U58C" value_measured=1.03
variant_id="U31C G63A" value_measured=0.67
variant_id="G8U U60G" value_measured=0.06
variant_id="A20G G53A" value_measured=0.98
variant_id="A15C A18U" value_measured=0.32
variant_id="C32A A57G" value_measured=0.24
variant_id="C34G U60C" value_measured=0.15
variant_id="A20U G42U" value_measured=0.13
variant_id="A57C A75U" value_measured=0.58
variant_id="G53C G55A" value_measured=0.98
variant_id="U60A U74C" value_measured=1.04
variant_id="U1A C59U" value_measured=0.46
variant_id="A35C U76G" value_measured=0.77
variant_id="U26C U54G" value_measured=0.27
variant_id="A15C U26C" value_measured=0.36
variant_id="G8C A15C" value_measured=0.29
variant_id="U51C U66A" value_measured=0.65
variant_id="G33A A57C" value_measured=0.11
variant_id="A28U G53A" value_measured=0.87
variant_id="A28G U76A" value_measured=0.61
variant_id="C12U U43A" value_measured=1.24
variant_id="A28G G42A" value_measured=0.46
variant_id="A45G U66C" value_measured=0.34
variant_id="C23U C44A" value_measured=0.38
variant_id="G30A U60C" value_measured=0.15
variant_id="A18U G63U" value_measured=0.57
variant_id="C59U A75G" value_measured=0.81
variant_id="G7C U69C" value_measured=0.2
variant_id="G9U C59U" value_measured=0.06
variant_id="C37U U54C" value_measured=0.79
variant_id="A45C U58C" value_measured=0.33
variant_id="A15G G24U" value_measured=0.12
variant_id="A18U C34U" value_measured=0.25
variant_id="G7A G70C" value_measured=0.06
variant_id="G22U A28U" value_measured=0.17
variant_id="A45G U67A" value_measured=0.38
variant_id="A18C A75G" value_measured=0.41
variant_id="A20C A56G" value_measured=0.27
